- assay_system: T1, human NPY2R (human, UniProt P49146 1-381)
- T1 sequence (looked up): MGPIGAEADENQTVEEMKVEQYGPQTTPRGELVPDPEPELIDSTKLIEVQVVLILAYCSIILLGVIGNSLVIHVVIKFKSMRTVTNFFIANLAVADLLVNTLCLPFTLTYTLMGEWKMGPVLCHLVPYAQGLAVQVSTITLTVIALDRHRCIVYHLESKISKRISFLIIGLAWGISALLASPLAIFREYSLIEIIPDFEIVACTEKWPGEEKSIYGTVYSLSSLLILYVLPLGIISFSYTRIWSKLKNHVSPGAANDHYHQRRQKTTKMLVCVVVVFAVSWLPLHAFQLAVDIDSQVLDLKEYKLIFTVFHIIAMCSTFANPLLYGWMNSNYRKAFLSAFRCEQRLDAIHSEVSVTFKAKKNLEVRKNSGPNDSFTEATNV
- protocol_notes: cell-based or functional assay
Square brackets hold non-standard residues; d marks the D form. Side chains are listed from the residue outwards. Phe(2-F) = N[C@@H](Cc1ccccc1F)C(=O)O; αMeF = C[C@](N)(Cc1ccccc1)C(=O)O; Iva = CC[C@](C)(N)C(=O)O; Oda = not defined here; Aib = CC(C)(N)C(=O)O
attribute_measured: Agonist activity (EC50), Cre-luc reporter assay (nM)

binder: H-Y[Aib]EGT[αMeF]TSDK([Gly-Gly-Gly-Gly-Oda])AI[Aib]LDKQRQ[Iva]EFVRHLLNK[Aib]TRQRY-NH2 (reading uncertain; also: printed as H-Tyr-Aib-Glu-Gly-Thr-αMePhe-Thr-Ser-Asp-Lys(-Gly-Gly-Gly-Gly-Oda)-Ala-Ile-Aib-Leu-Asp-Lys-Gln-Arg-Gln-Iva-Glu-Phe-Val-Arg-His-Leu-Leu-Asn-Lys-Aib-Thr-Arg-Gln-Arg-Tyr-NH2)
reading_unit: nM
recorded_result: 3
//
binder: Me-Y[Aib]EGT[αMeF]TSDK([Gly-Gly-Gly-Gly-Pal])[Aib]K[Aib]LDKQRQ[Iva]EFVRHLLNK[Aib]TRQRY-NH2
reading_unit: nM
recorded_result: 0.068
//
binder: H-Y[Aib]EGT[αMeF]TSDK([Gly-Gly-Gly-Gly-Oda])[Aib]I[Aib]LDKQAQ[Iva]EFVRHLLNK[Aib]TRQRY-NH2 (reading uncertain; also: printed as H-Tyr-Aib-Glu-Gly-Thr-αMePhe-Thr-Ser-Asp-Lys(-Gly-Gly-Gly-Gly-Oda)-Aib-Ile-Aib-Leu-Asp-Lys-Gln-Ala-Gln-Iva-Glu-Phe-Val-Arg-His-Leu-Leu-Asn-Lys-Aib-Thr-Arg-Gln-Arg-Tyr-NH2)
reading_unit: nM
recorded_result: 2.4
//
binder: H-Y[Aib]EGT[αMeF]TSDK([Gly-Gly-Gly-Gly-Oda])[Aib]I[Aib]LDKQAQ[Iva]EFVRHLLNK[Aib]TRQR[Phe(2-F)]-NH2 (reading uncertain; also: printed as H-Tyr-Aib-Glu-Gly-Thr-αMePhe-Thr-Ser-Asp-Lys(-Gly-Gly-Gly-Gly-Oda)-Aib-Ile-Aib-Leu-Asp-Lys-Gln-Ala-Gln-Iva-Glu-Phe-Val-Arg-His-Leu-Leu-Asn-Lys-Aib-Thr-Arg-Gln-Arg-Phe(2-F)-NH2)
reading_unit: nM
recorded_result: 2.1
//
binder: Me-Y[Aib]EGT[αMeF]TSDK([Gly-Gly-Gly-Gly-Oda])SI[Aib]LEKQRQ[Iva]EFVRHLLNK[Aib]TRQRY-NH2 (reading uncertain; also: printed as Me-Tyr-Aib-Glu-Gly-Thr-αMePhe-Thr-Ser-Asp-Lys(-Gly-Gly-Gly-Gly-Oda)-Ser-Ile-Aib-Leu-Glu-Lys-Gln-Arg-Gln-Iva-Glu-Phe-Val-Arg-His-Leu-Leu-Asn-Lys-Aib-Thr-Arg-Gln-Arg-Tyr-NH2)
reading_unit: nM
recorded_result: 2.6
//
binder: H-Y[Aib]EGT[αMeF]TSDK([Gly-Gly-Gly-Gly-Oda])[Aib]K[Aib]LDKQRQ[Iva]EFVRHLLNK[Aib]TRQRY-NH2 (reading uncertain; also: printed as H-Tyr-Aib-Glu-Gly-Thr-αMePhe-Thr-Ser-Asp-Lys(-Gly-Gly-Gly-Gly-Oda)-Aib-Lys-Aib-Leu-Asp-Lys-Gln-Arg-Gln-Iva-Glu-Phe-Val-Arg-His-Leu-Leu-Asn-Lys-Aib-Thr-Arg-Gln-Arg-Tyr-NH2)
reading_unit: nM
recorded_result: 1.5
//
binder: H-Y[Aib]EGT[αMeF]TSDK([Gly-Gly-Gly-Gly-Oda])[Aib]I[Aib]LDKQRQ[Iva]EFVRHLLNK[Aib]TRQR[Phe(2-F)]-NH2 (reading uncertain; also: printed as H-Tyr-Aib-Glu-Gly-Thr-αMePhe-Thr-Ser-Asp-Lys(-Gly-Gly-Gly-Gly-Oda)-Aib-Ile-Aib-Leu-Asp-Lys-Gln-Arg-Gln-Iva-Glu-Phe-Val-Arg-His-Leu-Leu-Asn-Lys-Aib-Thr-Arg-Gln-Arg-Phe(2-F)-NH2)
reading_unit: nM
recorded_result: 1.3

(I) Me-Y[Aib]EGT[αMeF]TSDK([Gly-Gly-Gly-Gly-Pal])[Aib]I[Aib]LEKQRQ[Iva]EFVRHLLNK[Aib]TRQRY-NH2
(II) H-Y[Aib]EGT[αMeF]TSDK([Gly-Gly-Gly-Gly-Pal])[Aib]I[Aib]LDKQRQ[Iva]EFVRHLLNK[Aib]TRQR[Phe(2-F)]-NH2
(III) Me-Y[Aib]EGT[αMeF]TSDK([Gly-Gly-Gly-Gly-Pal])[Aib]I[Aib]LDKQRQ[Iva]EFVRHLLNK[Aib]TRQR[Phe(2-F)]-NH2
Hey, quick one: sort these by Agonist activity (EC50), Cre-luc reporter assay, top value first please. Please list the labels in the order you were asked to rank them. II, III, I
